Source listed as PubChem BioAssay AID256.

Test system: CD2F1 mice, L1210 leukemia ip, survival T/C
experimentalProtocol: NCI In Vivo Anticancer Drug Screen. Data for tumor model L1210 Leukemia (intraperitoneal) in CD2F1 (CDF1) mice
runParameters: endpoint: mean survival time; dose: 75.0 mg/kg/injection; schedule: Q01DX001 (ip); vehicle: saline; higher = longer survival
Description: The antitumor activity of compounds was measured in mice bearing transplantable tumors. Survival or tumor size were measured and the results are expressed as the measurement made in the treated group (T) divided by the measurement made in the vehicle treated control group (C). The tumor model used in this assay is L1210 Leukemia (intraperitoneal) in CD2F1 (CDF1) mice
Toxic doses and inconclusive results are not listed.
readoutType: T/C

Guide cases for T/C, answers given:
I would be grateful if you could share the reported T/C for "CN(CCCCl)CCCCl" .
103 % of control

Entry under review: CC1c2ccccc2CC2(C)CN12 (stereo not drawn) . Reported T/C?
103 % of control

Data request, read-out T/C, for "NC(=O)NN=C1CCC1"
98 % of control

Provide the reported T/C of each entry below, same order.
1. Nc1cccc(OCc2nc(N)nc(N)c2-c2ccc(Cl)cc2)c1
2. NNc1nc(=O)[nH]nc1Sc1ccccc1
3. CN=NNc1ccccc1
4. CCC1COCC1Cc1cncn1C (stereo not drawn)
5. CNc1ncnc2[nH]cc([N+](=O)[O-])c12

["100 % of control", "96 % of control", "117 % of control", "97 % of control", "96 % of control"]
